Molecular target: human JAK3 (a.a. 781-1124) (Homo sapiens)
Construct: JAK3 (a.a. 781-1124); His tag (N); made in house; host or cells: insect cells (baculovirus)
Sequence (P52333 781-1124): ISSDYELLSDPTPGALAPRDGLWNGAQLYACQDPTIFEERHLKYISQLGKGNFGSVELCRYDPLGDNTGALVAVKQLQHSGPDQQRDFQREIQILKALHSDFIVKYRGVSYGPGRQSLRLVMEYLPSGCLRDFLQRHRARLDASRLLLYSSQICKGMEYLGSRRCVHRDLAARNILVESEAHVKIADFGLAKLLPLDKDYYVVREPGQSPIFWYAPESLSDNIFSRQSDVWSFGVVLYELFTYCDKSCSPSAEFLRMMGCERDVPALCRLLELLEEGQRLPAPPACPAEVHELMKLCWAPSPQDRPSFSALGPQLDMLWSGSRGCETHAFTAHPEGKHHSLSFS
Assay: In vitro JAK kinase assay (HTRF, phosphorylation of a biotinylated peptide), JAK3
Type: biochemical
Where a name gives a salt, the structure may show the parent alone.
property label: IC50 (nM)

Some entries whose results are on file:
O=C(Cc1ccco1)Nc1ccc2cc1CCc1cccc(c1)Nc1ncc(Cl)c(n1)N2 [Example C36, trifluoroacetate] | 663
O=C(c1cccnc1)N1Cc2cccc(c2)Nc2ncc(Cl)c(n2)Nc2cccc1c2 | 1290

(a) O=S1(=O)Cc2cccc(c2)Nc2nc(ncc2Cl)Nc2cccc(c2)N1 [Example C8, trifluoroacetate]
(b) O=S1(=O)Cc2cccc(c2)Nc2ncc(Cl)c(n2)Nc2cccc(c2)N1 [Example C9, trifluoroacetate]
(c) Cc1nc(CC(=O)Nc2ccc3cc2CCc2cccc(c2)Nc2ncc(Cl)c(n2)N3)cs1 [Example C38, trifluoroacetate]
Asked: Task field, ranking: reported IC50, descending order. Answer by listing the labels in the requested order.
Given back: c, b, a
(c: 1070 nM, b: 412 nM, a: 242 nM)

---

Target: human JAK1 (a.a. 837-1142) (Homo sapiens)
Construct: human JAK1 (a.a. 837-1142); His tag (N); made in house; host or cells: insect cells (baculovirus)
Assay: In vitro JAK kinase assay (HTRF, phosphorylation of a biotinylated peptide), JAK1
Type: biochemical
Settings: method AA1 (90 μM ATP) or AA2 (1000 μM ATP), not stated per value; read-out: JAK1 IC50
property label: IC50 (nM)

Cc1cc(N2CCC(CC(=O)Nc3ccc4cc3CCc3cncc(c3)Nc3ncc(Cl)c(n3)N4)CC2)no1 [Example A247, bis(trifluoroacetate)] | 6.9

(I) O=C(CC1CCN(S(=O)(=O)c2ccccc2OC(F)(F)F)CC1)Nc1ccc2cc1CCc1cncc(c1)Nc1ncc(Cl)c(n1)N2 [Example A227, bis(trifluoroacetate)]
(II) O=C(Nc1ccc2cc1CCc1cccc(c1)Nc1ncc(Cl)c(n1)N2)C1CCN(C(=O)Nc2ccc(Cl)nc2)CC1 [Example A40, bis(trifluoroacetate)]
Asked: Exercise: compare I and II ; which one has the greater IC50? Field: selected label. Fill in the label of the entry you choose.
Given back: II
(II: 16 nM, I: 10 nM)

---

Biological target: human JAK1 (a.a. 837-1142) (Homo sapiens, UniProt P23458)
Construct: human JAK1 (a.a. 837-1142); His tag (N); made in house; host or cells: insect cells (baculovirus)
Sequence (P23458 849-1154): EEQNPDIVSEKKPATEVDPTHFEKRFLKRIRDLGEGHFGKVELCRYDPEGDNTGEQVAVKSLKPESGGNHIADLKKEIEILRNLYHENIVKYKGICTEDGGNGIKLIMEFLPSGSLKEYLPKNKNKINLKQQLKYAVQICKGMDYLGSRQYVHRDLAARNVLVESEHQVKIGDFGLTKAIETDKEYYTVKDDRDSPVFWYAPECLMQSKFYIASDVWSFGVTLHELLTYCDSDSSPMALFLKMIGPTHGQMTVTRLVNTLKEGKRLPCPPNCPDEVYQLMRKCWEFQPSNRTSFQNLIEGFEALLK
Assay: In vitro JAK kinase assay (HTRF, phosphorylation of a biotinylated peptide), JAK1
Type: biochemical
Conditions: method AA1 (90 μM ATP) or AA2 (1000 μM ATP), not stated per value; read-out: JAK1 IC50
Where a name gives a salt, the structure may show the parent alone.
property label: IC50 (nM)

(A) NS(=O)(=O)N1CCC(CC(=O)Nc2ccc3cc2CCc2cncc(c2)Nc2ncc(Cl)c(n2)N3)CC1 [Example A78, bis(trifluoroacetate)]
(B) N#Cc1ccc(C(=O)N2CCC(CC(=O)Nc3ccc4cc3CCc3cccc(c3)Nc3ncc(Cl)c(n3)N4)CC2)cc1 [Example A186, trifluoroacetate]
Asked: Exercise: compare A and B ; which one has the greater IC50? Field: selected label. Fill in the label of the entry you choose.
Given back: B
(B: 58 nM, A: 0.4 nM)

(P) O=C(Nc1ccc2cc1CCc1cccc(c1)Nc1ncc(Cl)c(n1)N2)C1CCN(C(=O)Nc2ccccc2)CC1 [Example A36, trifluoroacetate]
(Q) Cc1ccc(C#N)c(N2CCC(CC(=O)Nc3ccc4cc3CCc3cncc(c3)Nc3ncc(Cl)c(n3)N4)CC2)n1 [Example A238, tris(trifluoroacetate)]
(R) Clc1cnc2nc1Nc1cccc(c1)/C=C\c1cccc(c1)N2 [Example A1, trifluoroacetate]
(S) N#Cc1c(Cl)cncc1N1CCC(CC(=O)Nc2ccc3cc2CCc2cncc(c2)Nc2ncc(Cl)c(n2)N3)CC1 [Example A240, tris(trifluoroacetate)]
Asked: Task field, ranking: reported IC50, descending order. Answer by listing the labels in the requested order.
Given back: Q, R, P, S
(Q: 18 nM, R: 6 nM, P: 2.4 nM, S: 1.5 nM)

---

Biological target: human JAK2 (a.a. 828-1132) (Homo sapiens)
Construct: JAK2 (a.a. 828-1132); His tag (N); made in house; host or cells: insect cells (baculovirus)
Sequence (O60674 828-1132): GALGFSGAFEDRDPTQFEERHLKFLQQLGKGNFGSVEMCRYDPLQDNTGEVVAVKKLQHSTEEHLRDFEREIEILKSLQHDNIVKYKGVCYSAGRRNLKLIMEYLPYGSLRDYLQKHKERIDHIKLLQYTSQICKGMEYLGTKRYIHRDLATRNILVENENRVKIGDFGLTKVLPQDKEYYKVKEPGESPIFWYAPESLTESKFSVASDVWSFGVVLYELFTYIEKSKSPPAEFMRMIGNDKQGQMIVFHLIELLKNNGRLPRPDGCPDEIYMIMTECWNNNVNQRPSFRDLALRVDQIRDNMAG
Test: In vitro JAK kinase assay (HTRF, phosphorylation of a biotinylated peptide), JAK2
Type: biochemical
Settings: Table D1
Counter-ions that a name gives are not always drawn.
property label: IC50 (nM)

Some entries whose results are on file:
O=C(COc1ccc2cc1CCc1cncc(c1)Nc1ncc(Cl)c(n1)N2)N1CCN(C(=O)C2CCCO2)CC1 (centres unmarked) [Example D272, bis(trifluoroacetate)] | 288
O=C(Nc1cc2cc(c1)OCCSc1cccc(c1)Nc1nc(ncc1Cl)N2)c1ccno1 [Example D59, trifluoroacetate] | 0.6
O=S1(=O)CCOc2cccc(c2)Nc2ncc(Cl)c(n2)Nc2cccc1c2 [Example D14, trifluoroacetate] | 2.2
CC(=O)N1CCN(c2ccc(-c3cc4cc(c3)Nc3ncc(Cl)c(n3)Nc3cccc(c3)OCC4)cn2)CC1 [Example D37, tris(trifluoroacetate)] | 0.7

(a) N#Cc1ccc(C(=O)N2CCN(c3ccc4cc3CCc3cccc(c3)Nc3ncc(Cl)c(n3)N4)CC2)cc1 [Example D95, bis(trifluoroacetate)]
(b) NC1CCN(c2ccc3cc2CCc2cccc(c2)Nc2ncc(Cl)c(n2)N3)C1 (centres unmarked) [Example D88, tris(trifluoroacetate)]
(c) O=C(Nc1cc2cc(c1)OCCSc1cccc(c1)Nc1nc(ncc1Cl)N2)c1ccco1 [Example D62, trifluoroacetate]
(d) Clc1cnc2nc1Nc1cccc(c1)SCCNc1cccc(c1)N2 [Example D80, bis(trifluoroacetate)]
(e) O=C(COc1ccc2cc1CCc1cncc(c1)Nc1ncc(Cl)c(n1)N2)N1CCN(S(=O)(=O)c2ccccc2F)CC1 [Example D253, bis(trifluoroacetate)]
Asked: Arrange the 5 entries by IC50 so the values rise. Answer by listing the labels in the requested order.
Given back: c, d, b, a, e

(P) Clc1cnc2nc1Nc1cccc(c1)OCCNc1cccc(c1)N2 [Example D70, bis(trifluoroacetate)]
(Q) [O-][S+]1CCc2cccc(c2)Nc2ncc(Cl)c(n2)Nc2cccc1c2 (centres unmarked) [Example D23, trifluoroacetate]
(R) Clc1cnc2nc1Nc1cccc(c1)OCCSc1cccc(c1)N2 [Example D15, trifluoroacetate]
(S) CC(=O)N1CCC[C@H](CC(=O)Nc2ccc3cc2CCc2cccc(c2)Nc2ncc(Cl)c(n2)N3)C1 [Example D201, trifluoroacetate]
(T) Cc1cc(C(=O)N2CCN(C(=O)COc3ccc4cc3CCc3cncc(c3)Nc3ncc(Cl)c(n3)N4)CC2)no1 [Example D251, bis(trifluoroacetate)]
Asked: Arrange the 5 entries by IC50 so the values rise. Answer by listing the labels in the requested order.
Given back: P, Q, S, T, R

(I) O=C(NCc1ccccc1)Nc1cc2cc(c1)OCCSc1cccc(c1)Nc1nc(ncc1Cl)N2 [Example D66, trifluoroacetate]
(II) CC(=O)N1CCC[C@H](CC(=O)Nc2ccc3cc2CCc2cncc(c2)Nc2ncc(Cl)c(n2)N3)C1 [Example D205, bis(trifluoroacetate)]
Asked: Identify the item whose IC50 is the smaller number: I or II Field: selected label. Fill in the label of the entry you choose.
Given back: I
(I: 3 nM, II: 15 nM)

---

Biological target: TYK2 (Homo sapiens)
Sequence (P29597 whole entry): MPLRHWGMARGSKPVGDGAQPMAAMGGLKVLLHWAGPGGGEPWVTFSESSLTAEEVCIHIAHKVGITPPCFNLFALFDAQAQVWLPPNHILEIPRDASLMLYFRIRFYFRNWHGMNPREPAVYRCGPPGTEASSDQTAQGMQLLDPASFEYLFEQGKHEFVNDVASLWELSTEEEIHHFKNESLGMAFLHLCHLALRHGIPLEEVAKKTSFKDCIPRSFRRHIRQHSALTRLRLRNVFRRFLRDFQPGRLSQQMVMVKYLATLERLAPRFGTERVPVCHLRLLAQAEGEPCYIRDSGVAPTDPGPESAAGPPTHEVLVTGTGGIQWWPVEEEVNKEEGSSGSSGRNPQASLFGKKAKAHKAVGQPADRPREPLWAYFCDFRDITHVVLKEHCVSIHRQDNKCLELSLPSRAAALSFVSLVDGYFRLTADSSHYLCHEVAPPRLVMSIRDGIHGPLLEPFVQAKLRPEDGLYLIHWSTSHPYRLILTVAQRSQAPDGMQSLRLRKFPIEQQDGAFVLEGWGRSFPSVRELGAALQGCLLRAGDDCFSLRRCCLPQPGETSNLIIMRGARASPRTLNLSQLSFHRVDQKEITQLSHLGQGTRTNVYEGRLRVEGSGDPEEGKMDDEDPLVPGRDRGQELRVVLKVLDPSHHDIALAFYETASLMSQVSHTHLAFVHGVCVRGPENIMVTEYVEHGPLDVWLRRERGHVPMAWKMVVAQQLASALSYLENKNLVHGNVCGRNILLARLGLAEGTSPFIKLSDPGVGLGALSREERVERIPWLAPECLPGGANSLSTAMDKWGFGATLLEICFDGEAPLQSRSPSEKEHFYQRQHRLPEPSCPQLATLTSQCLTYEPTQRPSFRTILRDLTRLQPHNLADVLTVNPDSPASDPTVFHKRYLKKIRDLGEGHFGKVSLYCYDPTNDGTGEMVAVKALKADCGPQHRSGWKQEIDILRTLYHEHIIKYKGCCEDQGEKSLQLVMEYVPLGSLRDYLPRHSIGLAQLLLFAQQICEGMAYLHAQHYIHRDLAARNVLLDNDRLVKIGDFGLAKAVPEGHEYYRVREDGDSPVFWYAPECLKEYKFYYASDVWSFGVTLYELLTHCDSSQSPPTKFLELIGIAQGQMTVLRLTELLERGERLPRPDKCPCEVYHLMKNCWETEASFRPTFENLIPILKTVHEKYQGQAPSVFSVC
Experiment: TYK2 kinase inhibition (Table A1)
Assay type: biochemical
Conditions: Table B1
pIC50: −log10 of the molar value. Counter-ions that a name gives are not always drawn.
property label: pIC50

N#Cc1ccccc1S(=O)(=O)Nc1cc2cc(c1)Nc1nc(ncc1Cl)Nc1cccc(c1)CC2 [Example B216, trifluoroacetate] | 7.18
O=C(Nc1ccc2cc1CCc1cccc(c1)Nc1ncc(Cl)c(n1)N2)c1ccc(Cl)nc1 [Example B69, bis(trifluoroacetate)] | 8.64
NC1CCN(c2ccnc(Nc3ccc4cc3CCc3cccc(c3)Nc3ncc(Cl)c(n3)N4)n2)CC1 [Example B281, tris(trifluoroacetate)] | 5.64

(A) O=C(Nc1ccc2cc1CCc1cccc(c1)Nc1ncc(Cl)c(n1)N2)C1CCCC1 [Example B60, trifluoroacetate]
(B) CC(C)(C)C(=O)Nc1ccc2cc1CCc1cccc(c1)Nc1ncc(Cl)c(n1)N2 [Example B58, trifluoroacetate]
(C) Cc1csc(NC(=O)Nc2ccc3cc2CCc2cccc(c2)Nc2ncc(Cl)c(n2)N3)c1 [Example B120, trifluoroacetate]
Asked: Arrange the 3 entries by pIC50 so the values rise. Answer by listing the labels in the requested order.
Given back: B, A, C
(B: 6.64, A: 7.33, C: 7.60)

---

Molecular target: human JAK3 (a.a. 781-1124) (Homo sapiens)
Construct: JAK3 (a.a. 781-1124); His tag (N); made in house; host or cells: insect cells (baculovirus)
Assay: In vitro JAK kinase assay (HTRF, phosphorylation of a biotinylated peptide), JAK3
Type: biochemical
Conditions: method AA1 (3 μM ATP) or AA2 (1000 μM ATP), not stated per value
pIC50: −log10 of the molar value. Structures can show the parent of a compound that is named as a salt.
property label: pIC50

CS(=O)(=O)N1CCC(CC(=O)Nc2ccc3cc2CCc2cncc(c2)Nc2ncc(Cl)c(n2)N3)CC1 [Example A79, bis(trifluoroacetate)] | 7.34
CC(Oc1ccc2cc1CCc1cccc(c1)Nc1ncc(Cl)c(n1)N2)C(=O)Nc1ccccc1 (stereo not drawn) [Example A16, trifluoroacetate] | 7.22
CSc1ccccc1NC(=O)N1CCC(C(=O)Nc2ccc3cc2CCc2cccc(c2)Nc2ncc(Cl)c(n2)N3)CC1 [Example A39, trifluoroacetate] | 7.18

(1) O=C(CC1CCNCC1)Nc1ccc2cc1CCc1cccc(c1)Nc1ncc(Cl)c(n1)N2 [Example A46, bis(trifluoroacetate)]
(2) O=C(CC1CCN(C(=O)Nc2ccccc2)C1)Nc1ccc2cc1CCc1cncc(c1)Nc1ncc(Cl)c(n1)N2 (stereo not drawn) [Example A92, bis(trifluoroacetate)]
(3) O=C(CN1CCN(c2nc3cccnc3o2)CC1)Nc1ccc2cc1CCc1cncc(c1)Nc1ncc(Cl)c(n1)N2 [Example A118, tris(trifluoroacetate)]
Asked: Arrange the 3 entries by pIC50 so the values rise. Answer by listing the labels in the requested order.
Given back: 3, 2, 1
